experiment: NCI Yeast Anticancer Drug Screen. Data for the bub3 strain (AID 167); conditions: S. cerevisiae bub3 mutant strain, at 50.0 µM (retest, dose inferred, filed as 5.0)
Compounds without any hit were thinned out: in the full panel of roughly 79,000, 15% have a hit. Active and inactive are the calls of the source. No stated cut-off is given here; in the data, active means growth inhibition above about 70%; inactive means the rest.
Labels: yes (active), no (inactive)

molecule	class.label
CCN(CC)CCNC(=O)c1ccc(N=Cc2cc(Cl)cc(Cl)c2O)cc1	yes
O=C(CSc1nnc(-c2ccc(N=Cc3ccc(Cl)cc3)cc2)o1)Nc1ccccc1Cl	no
CN(Cc1ccccc1)C(c1ccccc1)C(O)C(O)(c1ccccc1)c1ccccc1 (stereo not given)	no
COc1ccc(C2c3cc4c(cc3OC(N3CCOCC3)C2C)OCO4)c(OC)c1 (stereo not given)	yes
O=C(OCCN=c1c2ccccc2ccc2ccccc12)c1ccccc1	yes
CCCN(CCC)C(=O)CCC(C)=O	no
CCOC(=O)C(/C=N\C(=S)Nc1c(CC)cccc1C(C)(C)C)=C(/O)c1ccccc1	yes
Clc1ccc(OCCC(Cn2ccnc2)c2ccc(Cl)cc2Cl)c(Cl)c1 (stereo not given)	yes
COc1ccccc1NC(=O)C1=C(C)NC(C)=C(C(=O)Nc2ccccc2OC)C1c1ccc(C2C(C(=O)Nc3ccccc3OC)=C(C)NC(C)=C2C(=O)Nc2ccccc2OC)cc1	yes
CC1(C)OC2C(COC(c3ccccc3)(c3ccccc3)c3ccccc3)OC(n3cnc4c(N)ncnc43)C2O1 (stereo not given)	yes

----------
test: NCI Yeast Anticancer Drug Screen. Data for the rad50 strain (AID 155);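 further: 0% = growth of vehicle-only cultures of the same strain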; settings: S. cerevisiae rad50 strain growth inhibition; at 50.0 µM; hits give high values
About 79,000 compounds went through this panel and 15% of them were active in at least one assay; those are over-represented in the sample as a whole. Activity calls are given as the source filed them. Rule as the data show it: active = growth inhibition above about 70%; inactive = the rest.

compound	growth inhibition
CCCCCNc1ccc2c(cc1=O)C(NC(C)=O)CCc1cc(OC)c(OC)c(OC)c1-2 (stereo not drawn)	13.4% (inactive)
CCCCCCCCCCCC(=O)OCCOP(=O)(OCC)OCC	87.2% (active)
O=C(Nc1cc(Cl)cc(Cl)c1)C(F)(F)F	83.9% (active)

----------
Test: NCI Yeast Anticancer Drug Screen. Data for the rad50 strain (AID 155);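 further: 0% = growth of vehicle-only cultures of the same strain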
Details: S. cerevisiae rad50 strain growth inhibition; at 50.0 µM
Experimental: Growth inhibition of yeast strains with defined genetic alterations is measured as a screen for potential anti-cancer activity. Selected strains with alterations in DNA damage repair or cell cycle control were exposed to compounds and growth inhibition was measured relative to vehicle treated controls. The strain used in this assay is rad50
About 79,000 compounds went through this panel and 15% of them were active in at least one assay; those are over-represented in the sample as a whole. Calls of active or inactive are those of the source. Rule as the data show it: active = growth inhibition above about 70%; inactive = the rest.
Labels: active, inactive

compound	class.label
O=S(=O)(NC1CCCCC1)c1ccc2c(c1)OCCOCCOCCOCCO2	inactive
C/C(O)=C(/C=N\C(=S)Nc1ccc(Cl)c(Cl)c1)C(=O)Nc1ccccc1C	inactive
CN(C)CCCC(C#N)(CCCN(C)C)c1ccccc1	inactive
N=Nc1c(OC(=O)Nc2ccccc2)[nH]c2ccccc12	inactive
C[Si](C)(C)C1=C([Si](C)(C)C)C(Cl)(Cl)C1=O	inactive
CCCCCc1cc(C(=O)OC/C(C)=N/O)c2ccccc2n1	active
C[C@]12CC[C@H](O)C[C@@H]1CC[C@@H]1[C@@H]2CC[C@]2(C)C=CC[C@@H]12	inactive
CCCCC1C(=S)N(c2ccccc2)N(c2ccccc2)C1=S	inactive
Nc1cc(F)c(F)cc1Sc1cc(F)c(F)cc1N	active
O=C(O)c1cc2c(cc1CC(Cc1ccc3c(c1)CCCC3)C(=O)O)CCCC2 (stereo not given)	active
CN(C)C1=NC2=S(SC(Nc3ccccc3)=N2)S1 (stereo not given)	inactive
N/C(=N\N=C\c1cc(I)cc(I)c1O)NO	active
COc1ccc(C(c2cc3c(cc2O)OCO3)N2CCCC2)c(OC)c1 (stereo not given)	active
Oc1c(Cl)cccc1-c1ccccc1	inactive
NC(=O)C#CC#CC#CCO	active
